This listing pairs compounds with measured activation at 1 µM.
# System name: PKR T384W (Homo sapiens, UniProt P30613, T384W)
# Sequence (P30613 whole entry T384W): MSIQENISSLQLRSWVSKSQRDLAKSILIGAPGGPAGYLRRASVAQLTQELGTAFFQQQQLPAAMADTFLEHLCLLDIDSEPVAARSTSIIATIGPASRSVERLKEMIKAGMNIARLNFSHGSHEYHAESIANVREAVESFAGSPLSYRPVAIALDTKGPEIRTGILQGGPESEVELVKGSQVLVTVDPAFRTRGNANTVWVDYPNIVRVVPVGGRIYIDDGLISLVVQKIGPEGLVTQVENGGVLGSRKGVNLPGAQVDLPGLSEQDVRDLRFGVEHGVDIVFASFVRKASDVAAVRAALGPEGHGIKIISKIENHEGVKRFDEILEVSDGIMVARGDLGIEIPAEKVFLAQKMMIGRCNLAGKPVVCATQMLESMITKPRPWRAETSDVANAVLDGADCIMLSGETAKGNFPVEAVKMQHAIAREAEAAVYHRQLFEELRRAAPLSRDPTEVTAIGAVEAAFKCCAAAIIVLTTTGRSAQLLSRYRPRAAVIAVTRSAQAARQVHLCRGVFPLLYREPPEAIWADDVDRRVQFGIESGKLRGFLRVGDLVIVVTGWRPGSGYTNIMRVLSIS
# Method: PKR T384W Single Point Percent Activation Assay
# Assay type: biochemical
# Condition notes: read-out: Act. % 384W

The cases that follow already have their activation at 1 µM on record.
- Compound: "C[C@@H]1CN(C(=O)OCCC2CCCCC2)CCN1C(=O)c1ccc(NS(=O)(=O)c2cccc3cccnc23)cc1"
  Meas value: "1 to 100%"
- Compound: "CC(c1ccc(Cl)c(F)c1)N1CCN(C(=O)c2ccc(NS(=O)(=O)c3cccc4cccnc34)cc2)[C@@H](C)C1 (some centres unmarked)"
  Meas value: "1 to 100%"
- Compound: "COc1cccc(CN2CCN(C(=O)c3ccc(NS(=O)(=O)c4cccc5cccnc45)cc3)[C@@H](C)C2)c1OC"
  Meas value: "101 to 500%"
- Compound: "C[C@@H]1CN(C(=O)O[C@@H]2CCOC2)CCN1C(=O)c1ccc(NS(=O)(=O)c2cccc3cccnc23)cc1"
  Meas value: "1 to 100%"
- Compound: "C[C@@H]1CN(C(=O)OCC2CCCO2)CCN1C(=O)c1ccc(NS(=O)(=O)c2cccc3cccnc23)cc1 (some centres unmarked)"
  Meas value: "1 to 100%"
- Compound: "C[C@@H]1CN(CC2CCCC2)CCN1C(=O)c1ccc(NS(=O)(=O)c2cccc3cccnc23)cc1"
  Meas value: "101 to 500%"
- Compound: "C[C@H]1CN(Cc2cc(F)cc(F)c2F)CCN1C(=O)c1ccc(NS(=O)(=O)c2cccc3cccnc23)cc1"
  Meas value: "101 to 500%"

Pending compound:
## Input Any idea what activation at 1 µM was measured for CCOC(=O)N1[C@H](C)CN(C(=O)c2ccc(NS(=O)(=O)c3cccc4cccnc34)cc2)C[C@@H]1C ?
## Output 101 to 500%

---

This listing pairs compounds with measured activation at 1 µM.
# System name: PKR T384W (Homo sapiens, UniProt P30613, T384W)
# Method: PKR T384W Single Point Percent Activation Assay
# Type: biochemical
# Condition notes: read-out: Act. % 384W
# Protocol: PKR T384W Single Point Percent Activation Assay A compound described herein was diluted with DMSO and tested at 1 μM concentration. The enzyme was diluted in 1× Buffer: (100 mM KCl, 50 mM Tris 7.5, 5 mM MgCl2, 1 mM DTT, 0.03% BSA). 2 μL of compound solution was first added into wells, and then 180 μL enzyme solution was added. […] 20 μL ADP was added to start the assay and assay output was evaluated using OD340 at SpectraMax. […]

The cases that follow already have their activation at 1 µM on record.
- Compound: "C[C@@H]1CN(C(=O)OC2CCCOC2)CCN1C(=O)c1ccc(NS(=O)(=O)c2cccc3cccnc23)cc1 (stereo partly shown)"
  System name: "PKR T384W (Homo sapiens, UniProt P30613, T384W)"
  activation at 1 µM: "101 to 500%"
- Compound: "CC1CN(Cc2cc(F)c(F)c(F)c2)CC(C)N1C(=O)c1ccc(NS(=O)(=O)c2cccc3cccnc23)cc1 (stereo not shown)"
  System name: "PKR T384W (Homo sapiens, UniProt P30613, T384W)"
  activation at 1 µM: "1 to 100%"
- Compound: "O=C(c1ccc(NS(=O)(=O)c2cccc3cccnc23)cc1)N1CCN(Cc2cc(F)cc(F)c2)c2ccccc21"
  System name: "PKR T384W (Homo sapiens, UniProt P30613, T384W)"
  activation at 1 µM: "101 to 500%"

## Input Any idea what activation at 1 µM was measured for CC(c1ccc(F)cc1Cl)N1CCN(C(=O)c2ccc(NS(=O)(=O)c3cccc4cccnc34)cc2)[C@H](C)C1 (stereo partly shown) ?
## Output 101 to 500%

## Input Any idea what activation at 1 µM was measured for C[C@@H]1CN(Cc2cc(F)cc(F)c2F)CCN1C(=O)c1ccc(NS(=O)(=O)c2cccc3cccnc23)cc1 ?
## Output 1 to 100%

## Input Any idea what activation at 1 µM was measured for CCOC(=O)N1CCN(C(=O)c2ccc(NS(=O)(=O)c3cccc4cccnc34)cc2)[C@@H](C)C1 ?
## Output 101 to 500%

## Input Any idea what activation at 1 µM was measured for CC(c1c(F)ccc(F)c1F)N1CCN(C(=O)c2ccc(NS(=O)(=O)c3cccc4cccnc34)cc2)[C@H](C)C1 (stereo partly shown) ?
## Output 101 to 500%
